# Target or test system: T1, Macaca fascicularis IL2Rγ extracellular domain expressed with a C-terminal myc-myc-hexahistidine tag (Macaca fascicularis)
# T1 construct: whole entry is the tagged construct; also called mfIL-2Rg-MMH
# T1 chain: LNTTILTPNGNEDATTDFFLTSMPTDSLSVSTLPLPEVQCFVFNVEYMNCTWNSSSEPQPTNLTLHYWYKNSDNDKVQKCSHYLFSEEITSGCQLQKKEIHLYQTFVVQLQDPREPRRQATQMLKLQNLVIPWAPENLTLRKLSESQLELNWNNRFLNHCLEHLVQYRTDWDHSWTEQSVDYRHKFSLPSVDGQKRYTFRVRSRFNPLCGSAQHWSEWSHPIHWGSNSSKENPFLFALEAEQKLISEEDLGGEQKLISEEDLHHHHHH
# Method description: SPR Biacore 4000, anti-hFc-captured mAb, 37 C
Recorded endpoint: kon

INSERT INTO measurements (binder, reported_result) VALUES
  ('H4H12900P (antibody, human IgG4 S228P, kappa, V domains shown, fully human anti-IL2Rgamma mAb, human IgG4 Fc) VH: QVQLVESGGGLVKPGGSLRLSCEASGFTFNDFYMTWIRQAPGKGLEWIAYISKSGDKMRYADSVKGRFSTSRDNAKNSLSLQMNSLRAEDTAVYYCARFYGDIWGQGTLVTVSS VL: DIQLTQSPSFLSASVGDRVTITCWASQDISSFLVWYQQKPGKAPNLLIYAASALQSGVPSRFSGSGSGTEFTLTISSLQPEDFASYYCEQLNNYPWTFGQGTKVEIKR', '483000 M⁻¹ s⁻¹');
